Biological target: D(1A) dopamine receptor (Homo sapiens)
Assay: Displacement of [3H]SCH23390 from human D1 receptor expressed in HEK293 cells
ASSAY_ENDPOINT: Ki (µM)

SMILES_RECORD: OC[C@@H]1[C@@H]2CN(Cc3ccccc3)[C@@H](c3ccccc3)[C@@H]2[C@H]1N1CCCC1
ASSAY_ENDPOINT: Ki
UNIT_TAG: µM
READOUT_NUMBER: 22
//
SMILES_RECORD: CCN(CC)[C@H]1[C@H](CO)[C@@H]2CN(Cc3ccccc3)[C@@H](c3ccc(Br)cc3)[C@@H]21
ASSAY_ENDPOINT: Ki
UNIT_TAG: µM
READOUT_NUMBER: 8
//
SMILES_RECORD: CCN(CC)[C@@H]1[C@@H](CO)[C@H]2CN(Cc3ccccc3)[C@H](c3ccccc3)[C@H]21
ASSAY_ENDPOINT: Ki
UNIT_TAG: µM
READOUT_NUMBER: 42
//
SMILES_RECORD: OC[C@H]1[C@H]2CN(Cc3ccccc3)[C@H](c3ccccc3)[C@H]2[C@@H]1N1CCCCC1
ASSAY_ENDPOINT: Ki
UNIT_TAG: µM
READOUT_NUMBER: 44
//
SMILES_RECORD: OC[C@H]1[C@H]2CN(Cc3ccccc3)[C@H](c3ccccc3)[C@H]2[C@@H]1N1CCCC1
ASSAY_ENDPOINT: Ki
UNIT_TAG: µM
READOUT_NUMBER: 40.8
//
SMILES_RECORD: OC[C@@H]1[C@@H]2CN(Cc3ccccc3)[C@@H](c3ccccc3)[C@@H]2[C@H]1N1CCCCC1
ASSAY_ENDPOINT: Ki
UNIT_TAG: µM
READOUT_NUMBER: 49

1 = CCN(CC)[C@@H]1[C@@H](CO)[C@H]2CN(Cc3ccccc3)[C@H](c3ccc(Br)cc3)[C@H]21
2 = CCN(CC)[C@H]1[C@H](CO)[C@@H]2CN(Cc3ccccc3)[C@@H](c3ccccc3)[C@@H]21
Between 1 and 2 , which one shows the larger Ki value? State the label of the item chosen. 2

----------
Recorded below: Ki, system D(3) dopamine receptor (Homo sapiens).
ASSAY_ENDPOINT: Ki (µM)

A selection of reference data follows.
SMILES_RECORD: C[C@H]1[C@H]2[C@@H](CN1Cc1ccccc1)[C@@H](CO)[C@@H]2N1CCCC1
UNIT_TAG: µM
READOUT_NUMBER: 11
--
SMILES_RECORD: CCN(CC)[C@H]1[C@H](CO)[C@@H]2CN(Cc3ccccc3)[C@@H](c3ccc(Br)cc3)[C@@H]21
UNIT_TAG: µM
READOUT_NUMBER: 2.14
--
SMILES_RECORD: OC[C@@H]1[C@@H]2CN(Cc3ccccc3)[C@@H](c3ccccc3)[C@@H]2[C@H]1N1CCCCC1
UNIT_TAG: µM
READOUT_NUMBER: 1.5
--
SMILES_RECORD: OC[C@H]1[C@H]2CN(Cc3ccccc3)[C@H](c3ccccc3)[C@H]2[C@@H]1N1CCCC1
UNIT_TAG: µM
READOUT_NUMBER: 11

a = CCN(CC)[C@@H]1[C@@H](CO)[C@H]2CN(Cc3ccccc3)[C@H](c3ccccc3)[C@H]21
b = CCN(CC)[C@H]1[C@H](CO)[C@@H]2CN(Cc3ccccc3)[C@@H](C)[C@@H]21
c = C[C@@H]1[C@@H]2[C@H](CN1Cc1ccccc1)[C@H](CO)[C@H]2N1CCCC1
d = CCN(CC)[C@@H]1[C@@H](CO)[C@H]2CN(Cc3ccccc3)[C@H](c3ccc(Br)cc3)[C@H]21
e = CCN(CC)[C@@H]1[C@@H](CO)[C@H]2CN(Cc3ccccc3)[C@H](C)[C@H]21
Hey, quick one: sort these by Ki, largest value first please. Response field: labels, in requested order. c, e, a, d, b
(c: 36 µM, e: 21 µM, a: 13.2 µM, d: 7.93 µM, b: 1.77 µM)

----------
Recorded below: pKi, system D(2) dopamine receptor (Homo sapiens, UniProt P14416).
pKi: −log10 of the molar value.
ASSAY_ENDPOINT: pKi

SMILES_RECORD: CCN(CC)[C@@H]1[C@@H](CO)[C@H]2CN(Cc3ccccc3)[C@H](c3ccccc3)[C@H]21
pKi: 4.92
--
SMILES_RECORD: OC[C@H]1[C@H]2CN(Cc3ccccc3)[C@H](c3ccccc3)[C@H]2[C@@H]1N1CCCCC1
pKi: 5.15
--
SMILES_RECORD: OC[C@@H]1[C@@H]2CN(Cc3ccccc3)[C@@H](c3ccccc3)[C@@H]2[C@H]1N1CCCC1
pKi: 6.60
--
SMILES_RECORD: CCN(CC)[C@H]1[C@H](CO)[C@@H]2CN(Cc3ccccc3)[C@@H](C)[C@@H]21
pKi: 5.41

P = C[C@H]1[C@H]2[C@@H](CN1Cc1ccccc1)[C@@H](CO)[C@@H]2N1CCCC1
Q = C[C@@H]1[C@@H]2[C@H](CN1Cc1ccccc1)[C@H](CO)[C@H]2N1CCCC1
Would you mind telling me which has the lower recorded pKi between P and Q ? // caller expects the label of the chosen entry Q
(Q: 4.18, P: 4.80)

----------
Observed Ki values for D(2) dopamine receptor (Homo sapiens, UniProt P14416) are listed in what follows.
ASSAY_ENDPOINT: Ki (µM)

a = CCN(CC)[C@H]1[C@H](CO)[C@@H]2CN(Cc3ccccc3)[C@@H](c3ccccc3)[C@@H]21
b = CCN(CC)[C@@H]1[C@@H](CO)[C@H]2CN(Cc3ccccc3)[C@H](c3ccc(Br)cc3)[C@H]21
c = OC[C@H]1[C@H]2CN(Cc3ccccc3)[C@H](c3ccccc3)[C@H]2[C@@H]1N1CCCC1
d = CCN(CC)[C@@H]1[C@@H](CO)[C@H]2CN(Cc3ccccc3)[C@H](C)[C@H]21
Sort ascending by Ki: all records listed above. Answer by writing out the labels in the requested order. a, b, c, d
(a: 1.7 µM, b: 5 µM, c: 7.4 µM, d: 38 µM)

----------
Target: D(1A) dopamine receptor (Homo sapiens, UniProt P21728)
Sequence (P21728 whole entry): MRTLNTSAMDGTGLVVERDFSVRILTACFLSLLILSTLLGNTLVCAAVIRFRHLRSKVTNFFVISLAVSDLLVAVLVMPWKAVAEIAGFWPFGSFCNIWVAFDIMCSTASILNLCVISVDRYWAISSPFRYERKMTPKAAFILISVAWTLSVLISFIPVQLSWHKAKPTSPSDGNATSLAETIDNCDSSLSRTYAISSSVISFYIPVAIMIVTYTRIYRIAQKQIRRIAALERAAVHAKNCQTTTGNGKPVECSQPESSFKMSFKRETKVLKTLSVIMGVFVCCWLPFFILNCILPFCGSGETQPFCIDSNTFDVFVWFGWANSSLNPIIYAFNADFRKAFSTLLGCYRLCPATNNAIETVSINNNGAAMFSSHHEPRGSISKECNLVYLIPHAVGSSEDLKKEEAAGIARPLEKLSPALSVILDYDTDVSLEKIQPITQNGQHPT
Assay: Displacement of [3H]SCH23390 from human D1 receptor expressed in HEK293 cells
Below, each entry is listed with its recorded Ki.

Recorded results for 5 compounds are shown here.
SMILES_RECORD: CCN(CC)[C@H]1[C@H](CO)[C@@H]2CN(Cc3ccccc3)[C@@H](C)[C@@H]21
Ki: > 100 µM

SMILES_RECORD: CCN(CC)[C@@H]1[C@@H](CO)[C@H]2CN(Cc3ccccc3)[C@H](C)[C@H]21
Ki: > 100 µM

SMILES_RECORD: CCN(CC)[C@@H]1[C@@H](CO)[C@H]2CN(Cc3ccccc3)[C@H](c3ccccn3)[C@H]21
Ki: > 100 µM

SMILES_RECORD: C[C@@H]1[C@@H]2[C@H](CN1Cc1ccccc1)[C@H](CO)[C@H]2N1CCCC1
Ki: > 100 µM

SMILES_RECORD: CCN(CC)[C@H]1[C@H](CO)[C@@H]2CN(Cc3ccccc3)[C@@H](c3ccccn3)[C@@H]21
Ki: > 100 µM

Now consider a different compound.
Ki lookup needed for `C[C@H]1[C@H]2[C@@H](CN1Cc1ccccc1)[C@@H](CO)[C@@H]2N1CCCC1` , thanks. > 100 µM

Where do the numbers come from? From ChEMBL document CHEMBL2062374.
